Sourced from the supplement of paper PMC11061612

Provide the recorded Bliss excess for the entries that follow.
- Test system: ZR-75-30 (Breast Carcinoma);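 further: after 72 h of two-drug dosing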
- Run description: Bliss excess, mean over the matrix (fraction); higher = more synergy
Form rule: numeric answer, no unit written next to it.

compound Cc1c2c(nn1C)CSCc1cc(n(C)n1)CSc1cc(c3ccccc3c1)OCCCc1c(C(=O)O)n(C)c3c-2c(Cl)ccc13 [AZD5991] + CCN(CCO)CCCOc1ccc2c(Nc3cc(CC(=O)Nc4cccc(F)c4)[nH]n3)ncnc2c1 [AZD2811] (first compound max 1 µM, 7x7, partner max 1 µM) , Bliss excess observed: 0.0825

compound CN(CCO)CC[C@H](CSc1ccccc1)Nc1ccc(S(=O)(=O)NC(=O)c2ccc(N3CCC([C@@H](O)c4ccccc4-c4ccc(Cl)cc4)CC3)cc2)cc1S(=O)(=O)C(F)(F)F [AZD4320] + Cn1cnc2c(F)c(Nc3ccc(Br)cc3Cl)c(C(=O)NOCCO)cc21 [Selumetinib] (first compound max 1 µM, 7x7, partner max 3 µM) , Bliss excess observed: -0.06
